- experimental-parameters: in 2-methoxyethanol, 323.15 K

molecule-smiles: Nc1nc2ccc(OC(F)(F)F)cc2s1
solubility (mole fraction): 0.478

* * *

- experimental-parameters: in n-propanol, 278.15 K

molecule-smiles: Nc1nc2ccc(OC(F)(F)F)cc2s1
solubility (mole fraction): 0.179

* * *

- experimental-parameters: in n-pentanol, 293.15 K

molecule-smiles: Nc1nc2ccc(OC(F)(F)F)cc2s1
solubility (mole fraction): 0.231

* * *

- experimental-parameters: in n-propyl acetate, 283.15 K

molecule-smiles: Nc1nc2ccc(OC(F)(F)F)cc2s1
solubility (mole fraction): 0.36

* * *

- experimental-parameters: in n-pentyl acetate, 288.15 K
measured-parameter: solubility (mole fraction)

molecule-smiles: Nc1nc2ccc(OC(F)(F)F)cc2s1
result: 0.365
